measured on: UniProt P11229
Sequence (P11229 whole entry): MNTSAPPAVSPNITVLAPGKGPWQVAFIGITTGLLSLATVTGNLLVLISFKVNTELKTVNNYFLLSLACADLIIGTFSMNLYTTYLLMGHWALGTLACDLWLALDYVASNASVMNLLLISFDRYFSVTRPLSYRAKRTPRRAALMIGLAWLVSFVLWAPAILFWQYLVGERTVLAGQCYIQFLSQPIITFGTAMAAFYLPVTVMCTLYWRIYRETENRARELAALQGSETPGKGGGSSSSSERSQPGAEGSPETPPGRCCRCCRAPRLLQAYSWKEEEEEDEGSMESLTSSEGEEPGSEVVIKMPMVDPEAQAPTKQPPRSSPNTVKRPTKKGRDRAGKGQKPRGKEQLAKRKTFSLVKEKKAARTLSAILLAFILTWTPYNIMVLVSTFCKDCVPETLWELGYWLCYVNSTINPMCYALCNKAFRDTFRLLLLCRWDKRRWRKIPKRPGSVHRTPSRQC
condition context: Compound concentration 10 µM
Description: PDSP Primary Binding target: CHRM1 - Compounds are tested at 10 uM concentration, plate are incubated at room temperature in the dark for 90 minutes. Reaction are stopped by vacuum filtration onto 0.3% polyethyleneimine soaked filter mats using Filtermate harvester. Scintilation cocktail is then melted onto microwave-dried filters on a hot plate and the radio activity is counted in Microbia counter.
value type: inhibition (%)
Supply the numeric figure in %, leaving out any unit text.

Look over these answered cases.
| compound | measured on | inhibition (%) |
| --- | --- | --- |
| NC(=O)[C@@H]1CCCN1C(=O)[C@H](Cc1c[nH]cn1)NC(=O)[C@@H]1CCC(=O)N1 | UniProt P11229 | -3.59 |
| COc1ccnc(N2CCC3(CCCN(Cc4c[nH]c5ccccc45)C3=O)CC2)n1 | UniProt P11229 | 0.43 |
| Cc1nc(C#Cc2ccnc(Cl)c2)c(C)n1-c1ccc(OC(F)(F)F)cc1 | UniProt P11229 | 26.6 |
| CS(=O)(=O)NC[C@H]1CC[C@H](Nc2nc3c(s2)CCSc2ccccc2-3)CC1 | UniProt P11229 | -1.96 |
| CN1CCCC(n2nc(Cc3ccc(Cl)cc3)c3ccccc3c2=O)CC1 (stereo not given) | UniProt P11229 | 82.9 |

# get_value(readout= inhibition, system= UniProt P11229) for N#Cc1c(N)nc(SCC(N)=O)c(C#N)c1-c1ccc(OCC2CC2)cc1
1.45

// same read-out, input: OCc1cc(C(O)CNCCCCCCOCCCCc2ccccc2)ccc1O (stereo not given)
19.1

Cc1ccccc1C(=O)Nc1ccc(C(=O)N2CCCC(O)c3cc(Cl)ccc32)c(C)c1 (stereo not given) , same question.
-6.43

Same again, this time with C[C@H](Cc1cc2c(c(C(N)=O)c1)N(CCCO)CC2)NCCOc1ccccc1OCC(F)(F)F
20.8

Quick one: N#Cc1ccc2[nH]cc(CCCCN3CCN(c4ccc5oc(C(N)=O)cc5c4)CC3)c2c1
1.49
